tested on: Acinetobacter baumannii; assay: Antibacterial activity against multi-drug resistant Acinetobacter baumannii 4 clinical isolate assessed as bacterial growth inhibition in presence of CAMHB medium by broth microdilution method; assay type: functional
So I've got a bunch of molecules here, and I need their MIC values.
Put your answer as a value accompanied by its unit after it.

Fc1cc2c(c3ncccc13)OCN(CCc1cccc(Cl)c1)C2
12.5 µg/mL

Give MIC for each of the items listed below.
1. Fc1cc2c(c3ncccc13)OCN(CCc1ccc(Br)cc1)C2
2. Clc1cc2c(c3ncccc13)OCN(CCCc1ccccc1)C2
3. Fc1cc2c(c3ncccc13)OCN(CCc1ccc(Cl)cc1)C2
4. Fc1ccc(CN2COc3c(cc(Cl)c4cccnc34)C2)c(F)c1
5. Clc1ccc(CN2COc3c(cc(Cl)c4cccnc34)C2)cc1
6. Fc1cc2c(c3ncccc13)OCN(Cc1ccc(Cl)cc1)C2
7. Clc1cc2c(c3ncccc13)OCN(CCc1ccccc1)C2

Solution:
1: 25 µg/mL; 2: 12.5 µg/mL; 3: 100 µg/mL; 4: 25 µg/mL; 5: 12.5 µg/mL; 6: 3.12 µg/mL; 7: 100 µg/mL

Lookup result for Fc1cc2c(c3ncccc13)OCN(CCc1cccc(Br)c1)C2 ; measured MIC: 12.5 µg/mL
